Please respond with reported gcPBM binding intensity (ln) for every item in the list.
- System: PfAP2-LT AP2 domain (GST-tagged)
- ASSAY: gcPBM binding intensity (ln(normalized median fluorescence intensity)); higher = stronger DNA binding
Whole data set: some 25,000 sequences, median “ln(normalized median fluorescence intensity)” near 8.9, cut for the highest 2% near 10. The sample as a whole holds a higher share of the highest values than the screen did.
Write no unit; give the number alone.

Problem: Look up gcPBM binding intensity (ln): AATAACCACAGACACACACACATATAAATATAAATA [CACACA_site7631]
Solution: 10

Problem: Look up gcPBM binding intensity (ln): AATAAATATATATACACACCCATATATATATATATA [CACACA_site2595]
Solution: 9.73

Problem: Look up gcPBM binding intensity (ln): TATATATATATATACACACACACACCCATATATATA [CACACA_site2538]
Solution: 10.2

Problem: Look up gcPBM binding intensity (ln): TATATATATATATATACACACACACCCATATATATA [CACACA_site8812]
Solution: 9.85

Problem: Look up gcPBM binding intensity (ln): ACAGAAAAAAGACACACACACATAATATACATACAT [CACACA_site6991]
Solution: 10.1

* * *

- Tested on: PfAP2-LT AP2 domain (GST-tagged)
- ASSAY: gcPBM binding intensity (ln(normalized median fluorescence intensity)); higher = stronger DNA binding
The full ranking holds about 25,000 sequences; the median of “ln(normalized median fluorescence intensity)” is about 8.9, and the highest 2% start at about 10. For the sample, the highest values were picked, then their nearest neighbours and some sequences at random.
Please respond with reported gcPBM binding intensity (ln) for every item in the list.
Write no unit; give the number alone.

Problem: Look up gcPBM binding intensity (ln): TATATATATATAATGTGTACACAAATATATATTATA [XGTACX_site8786]
Solution: 8.8

Problem: Look up gcPBM binding intensity (ln): AACCAGTTGATGTGTACACATATAGTAATAATTTTA [CACACA_site5564]
Solution: 9.16

Problem: Look up gcPBM binding intensity (ln): GTTTGAATGGCGCACTGTACACATATATACATATAG [XGTACX_site8619]
Solution: 9.13

Problem: Look up gcPBM binding intensity (ln): CATCCGTTGATATATGCATGCATATTGTTATTACCA [TGCATGCA_site868]
Solution: 9.11

Problem: Look up gcPBM binding intensity (ln): AAAAAGATAAAATATACATGCATATATAATATACAT [TGCATGCA_site488]
Solution: 8.94

* * *

- Tested on: PfAP2-LT AP2 domain (GST-tagged)
- ASSAY: gcPBM binding intensity (ln(normalized median fluorescence intensity)); higher = stronger DNA binding
The full ranking holds about 25,000 sequences; the median of “ln(normalized median fluorescence intensity)” is about 8.9, and the highest 2% start at about 10. Only a selection was taken, and the highest values are over-represented in it overall.
OUTCOME MEASURE: gcPBM binding intensity (ln)
Write no unit; give the number alone.

Problem: Short answer please: gcPBM binding intensity (ln), PfAP2-LT AP2 domain (GST-tagged), entry TACAAAATGGGGAACACACACATATATAAATAAATA [CACACA_site7751]
Solution: 9.6

Problem: Short answer please: gcPBM binding intensity (ln), PfAP2-LT AP2 domain (GST-tagged), entry ATATATATTTTAATAACACACATATATTATATTATA [CACACA_site4387]
Solution: 8.7

Problem: Short answer please: gcPBM binding intensity (ln), PfAP2-LT AP2 domain (GST-tagged), entry GGATATATTATATGTACACACACATATAAGGGATTA [CACACA_site7884]
Solution: 9.34

Problem: Short answer please: gcPBM binding intensity (ln), PfAP2-LT AP2 domain (GST-tagged), entry TTATATATATTTAAAAAAATAACATAAATAAATAAA [CACACA_negctrl_site347]
Solution: 8.29

Problem: Short answer please: gcPBM binding intensity (ln), PfAP2-LT AP2 domain (GST-tagged), entry ATTTATATGTAGATGTGTACTTAATTGTAATGTGTT [XGTACX_site6422]
Solution: 8.95
